Source of measurements: paper PMC10093973

Molecular target: NUCB1 ΔN (Homo sapiens) (UniProt Q02818)
Sequence: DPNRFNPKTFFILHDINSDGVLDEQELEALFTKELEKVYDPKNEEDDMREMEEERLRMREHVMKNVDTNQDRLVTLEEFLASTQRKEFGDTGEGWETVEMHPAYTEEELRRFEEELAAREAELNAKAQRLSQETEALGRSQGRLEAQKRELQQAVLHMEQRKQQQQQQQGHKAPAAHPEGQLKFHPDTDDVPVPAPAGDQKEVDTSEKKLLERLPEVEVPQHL
Experiment: SPR
Details: SPR: 50 mM Tris-HCl pH 8.0, 200 mM NaCl, 0.1% Tween-20, with or without 2 mM CaCl2, 25 °C; 5'-biotinylated RNA immobilized, NUCB1 as analyte, 1:1 model
Listed below: Kd values for each entry.
Numbers only here, please. The scale is nM.

Sample records with Kd:
sequence data | unit spec | readout number
GUGGUCAGUCGAGUGGUUUUUUUUUUUUUUUUUU [U-rich] | nM | 1.7
GUGGUCAGUCGAGUGGGGGGGG [G-rich] | nM | 5.3

# context switch: different sequence, same Kd
Query: Recorded Kd of GUGGUCAGUCGAGUGGAAAAAAAAAAAAAAAAAA [A-rich] , please.
Reply: 1.4

====

Target: NUCB1 ΔZ (Homo sapiens) (UniProt Q02818)
Sequence: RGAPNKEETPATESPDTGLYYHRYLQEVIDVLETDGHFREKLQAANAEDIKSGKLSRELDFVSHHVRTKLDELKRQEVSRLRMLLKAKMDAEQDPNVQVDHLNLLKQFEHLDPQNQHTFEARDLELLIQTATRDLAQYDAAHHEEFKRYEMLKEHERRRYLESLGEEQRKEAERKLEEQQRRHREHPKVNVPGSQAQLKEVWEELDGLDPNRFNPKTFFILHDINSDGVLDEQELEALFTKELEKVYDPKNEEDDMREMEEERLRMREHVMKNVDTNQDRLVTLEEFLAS
Experiment: SPR
Conditions: SPR: 50 mM Tris-HCl pH 8.0, 200 mM NaCl, 0.1% Tween-20, with or without 2 mM CaCl2, 25 °C; 5'-biotinylated RNA immobilized, NUCB1 as analyte, 1:1 model
experimental readout: pKd
Scale explanation: pKd corresponds to minus log10 of a concentration expressed in moles per litre.

sequence data | readout number
GUGGUCAGUCGAGUGGGGGGGG [G-rich] | 8.51

Query: Give the measured pKd of GUGGUCAGUCGAGUGGAAAAAAAAAAAAAAAAAA [A-rich] .
Reply: 9.52

Query: Which pKd is reported for this sequence? GUGGUCAGUCGAGUGGUUUUUUUUUUUUUUUUUU [U-rich]
Reply: 9.40
